Recorded pIC50 for the following molecules
- test.system: UniProt P15056
- Sequence (P15056 whole entry): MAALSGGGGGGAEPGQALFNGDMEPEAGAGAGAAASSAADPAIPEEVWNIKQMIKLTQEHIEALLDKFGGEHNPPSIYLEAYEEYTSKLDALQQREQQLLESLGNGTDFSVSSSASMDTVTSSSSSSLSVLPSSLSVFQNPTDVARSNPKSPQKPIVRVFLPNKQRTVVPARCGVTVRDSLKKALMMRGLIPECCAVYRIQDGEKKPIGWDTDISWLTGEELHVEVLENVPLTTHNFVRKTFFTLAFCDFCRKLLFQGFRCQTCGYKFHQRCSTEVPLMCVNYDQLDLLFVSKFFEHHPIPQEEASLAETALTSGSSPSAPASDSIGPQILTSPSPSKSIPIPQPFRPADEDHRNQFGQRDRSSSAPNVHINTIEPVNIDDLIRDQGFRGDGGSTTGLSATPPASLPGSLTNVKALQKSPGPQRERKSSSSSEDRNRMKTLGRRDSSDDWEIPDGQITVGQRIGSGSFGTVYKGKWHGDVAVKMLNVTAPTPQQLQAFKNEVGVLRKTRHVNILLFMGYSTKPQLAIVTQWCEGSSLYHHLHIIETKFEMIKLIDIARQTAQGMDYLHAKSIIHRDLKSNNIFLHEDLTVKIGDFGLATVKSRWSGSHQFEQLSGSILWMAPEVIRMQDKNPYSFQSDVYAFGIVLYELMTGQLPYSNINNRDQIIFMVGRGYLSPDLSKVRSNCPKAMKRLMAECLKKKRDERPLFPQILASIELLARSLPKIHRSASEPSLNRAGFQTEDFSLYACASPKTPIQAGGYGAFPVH
- test.details: Luciferase-coupled chemiluminescence kinase assay (ATP consumption), B-Raf
- Format: biochemical
- assay.context: read-out: bRaf IC50
- Method: Tyrosine kinase activity is determined by 1) measurement of kinase-dependent ATP consumption by in the presence of a generic substrate such as […], tyrosine (pEY), by luciferase/luciferin-mediated chemiluminescence or; 2) incorporation of radioactive phosphate derived from ^33P-ATP into a generic substrate which has been adsorbed onto the well surface of polystyrene microtiter plates. Phosphorylated substrate products are quantified by scintillation spectrometry. […]
pIC50: −log10 of the molar value.

Example cases with answers are listed next.
{"columns": ["molecule", "data.value"],
 "data": [
  ["COC(=O)Nc1nc2cc(C3(O)c4ccccc4C(=O)N3Cc3cccs3)ccc2[nH]1 (stereo not shown)", "> 7.00"],
  ["O=C1COc2ccc(C3(O)c4ccccc4C(=O)N3c3cccc(C(F)(F)F)c3)cc2N1 (stereo not shown)", "5.00 to 6.00"],
  ["Nc1cccc(N2C(=O)c3ccccc3C2(O)c2ccc3c(c2)NC(=O)CO3)c1 (stereo not shown)", "6.00 to 7.00"]
]}

Query: Missing value: pIC50, UniProt P15056, entry COC(=O)Nc1nc2cc(C3(O)c4ccccc4C(=O)N3Cc3ccc(C)cc3)ccc2[nH]1 (stereo not shown) . Fill in?
Reply: 5.00 to 6.00
